Consider the following compounds and their measured PT readings.
- Organism: Rattus norvegicus
- procedureDetails: Open TG-GATES - Regimen: Single
- Assay type: toxicity, organism-based, Sprague-Dawley
- Parameters: regimen Single, gender Male, age 6 weeks
- conditionDetails: in vivo, po, 0 mg/kg, 6 h, tissue Blood, route gavage, dose level Control

[
  {
    "compound": "O=[N+]([O-])c1ccc(O)c([N+](=O)[O-])c1 [2,4-DINITROPHENOL]",
    "PT": "12.2 s"
  },
  {
    "compound": "CCOC(=O)C(C)(C)Oc1ccc(Cl)cc1 [CLOFIBRATE]",
    "PT": "12.5 s"
  },
  {
    "compound": "C[C@H]1O[C@H](O[C@H]2[C@H](O)[C@@H](O)[C@@H](O[C@H]3[C@H](O)[C@@H](O)C(O)O[C@@H]3CO)O[C@@H]2CO)[C@H](O)[C@@H](O)[C@@H]1N[C@H]1C=C(CO)[C@@H](O)[C@H](O)[C@H]1O (stereo partly drawn) [ACARBOSE]",
    "PT": "13.7 s"
  },
  {
    "compound": "C[C@H]1C(=O)O[C@@H]2CCN3CC=C(COC(=O)[C@](C)(O)[C@]1(C)O)[C@H]23 [MONOCROTALINE]",
    "PT": "16.2 s"
  },
  {
    "compound": "OCCN1CCN(CCCN2c3ccccc3Sc3ccc(C(F)(F)F)cc32)CC1 [FLUPHENAZINE]",
    "PT": "12.8 s"
  },
  {
    "compound": "Cn1cc[nH]c1=S [METHIMAZOLE]",
    "PT": "16 s"
  },
  {
    "compound": "C=C(C)[C@H]1Cc2c(ccc3c2O[C@@H]2COc4cc(OC)c(OC)cc4[C@@H]2C3=O)O1 [ROTENONE]",
    "PT": "12.1 s"
  },
  {
    "compound": "Cc1cccc(C)c1OCC(C)N (stereo not drawn) [MEXILETINE]",
    "PT": "16 s"
  }
]

The values you see were collected from ChEMBL document CHEMBL3885861.
